Origin of the recorded values: ChEMBL document CHEMBL4602719

- test_system: Ubiquitin carboxyl-terminal hydrolase 47 (Homo sapiens)
- Sequence (Q96K76 whole entry): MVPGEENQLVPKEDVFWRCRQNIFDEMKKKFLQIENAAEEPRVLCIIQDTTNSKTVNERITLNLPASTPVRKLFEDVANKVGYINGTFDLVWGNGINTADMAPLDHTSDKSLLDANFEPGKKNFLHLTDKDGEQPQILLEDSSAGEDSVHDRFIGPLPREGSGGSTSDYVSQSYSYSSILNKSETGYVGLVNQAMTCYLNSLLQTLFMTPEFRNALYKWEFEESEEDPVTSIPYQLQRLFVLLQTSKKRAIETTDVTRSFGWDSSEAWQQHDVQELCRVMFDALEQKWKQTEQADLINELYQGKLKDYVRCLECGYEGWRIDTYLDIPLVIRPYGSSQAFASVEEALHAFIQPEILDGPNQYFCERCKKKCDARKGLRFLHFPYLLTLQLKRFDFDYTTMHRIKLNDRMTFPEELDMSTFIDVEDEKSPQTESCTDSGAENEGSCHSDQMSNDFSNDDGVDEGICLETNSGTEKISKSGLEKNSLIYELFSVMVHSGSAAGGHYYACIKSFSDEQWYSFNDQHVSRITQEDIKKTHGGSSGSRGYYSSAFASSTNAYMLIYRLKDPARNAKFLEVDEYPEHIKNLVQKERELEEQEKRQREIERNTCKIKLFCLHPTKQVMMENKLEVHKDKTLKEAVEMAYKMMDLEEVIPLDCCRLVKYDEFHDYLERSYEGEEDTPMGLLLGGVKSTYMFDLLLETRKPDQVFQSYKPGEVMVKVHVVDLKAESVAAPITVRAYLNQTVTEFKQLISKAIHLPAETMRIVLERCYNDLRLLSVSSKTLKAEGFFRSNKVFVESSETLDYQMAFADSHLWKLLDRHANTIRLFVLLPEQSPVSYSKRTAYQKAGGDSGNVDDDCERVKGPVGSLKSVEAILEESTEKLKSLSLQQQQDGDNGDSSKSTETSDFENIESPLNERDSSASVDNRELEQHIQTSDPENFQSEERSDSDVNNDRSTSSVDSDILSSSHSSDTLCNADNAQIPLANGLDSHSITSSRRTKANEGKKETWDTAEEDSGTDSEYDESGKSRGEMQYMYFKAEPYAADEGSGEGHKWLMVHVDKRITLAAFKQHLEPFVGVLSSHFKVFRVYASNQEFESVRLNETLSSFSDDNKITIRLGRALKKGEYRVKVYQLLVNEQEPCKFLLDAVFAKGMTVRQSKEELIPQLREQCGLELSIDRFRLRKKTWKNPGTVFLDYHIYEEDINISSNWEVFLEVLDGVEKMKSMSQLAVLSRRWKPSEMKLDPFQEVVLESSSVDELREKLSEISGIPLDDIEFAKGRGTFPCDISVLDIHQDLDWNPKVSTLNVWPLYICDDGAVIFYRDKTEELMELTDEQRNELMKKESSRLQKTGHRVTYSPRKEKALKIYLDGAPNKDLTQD
- experimental_protocol: Inhibition of USP47 (unknown origin) by biochemical assay
pIC50: −log10 of the molar value.
value_type: pIC50

Consider the following illustrative entries.
CC(Cc1ccccc1)C(=O)N1CCC(O)(Cn2cnc3ccccc3c2=O)CC1 (stereo not given)
< 4.10
O=C([C@H]1Cc2cc(Cl)cc(-c3ccnc4cc(C5(O)COC5)sc34)c2O1)N1CCNCC1
< 4.40
O=C1CCCN1Cc1cc2nccc(-c3cc(Cl)cc4c3O[C@@H](C(=O)N3CCNCC3)C4)c2s1
< 4.70
Cc1cc(Cl)cc(-c2ccnc3cc(CN4C(=O)C5C(C4=O)C5(C)C)sc23)c1O[C@@H]1CCNC[C@@H]1C (stereo not given in full)
< 5.00

Consider the additional compound presented here.
Tell me the measured pIC50 of `O=C([C@H]1Cc2cc(Cl)cc(-c3ccnc4ccsc34)c2O1)N1CCNCC1` , please.
< 4.40
